# reported composite z-score; entries follow
- Tested on: XIP peptide (Xip251-270) binding
- assay.overview: small-molecule binders of XIP peptide, primary screen, biochemical, small-molecule microarray, fluorescence 635/667 nm, 0.1 µg/mL protein (AID 1182)
- run.conditions: fluorescent protein binding, 635 nm, higher = more signal, called active from +8 up or from −8 down
Activity calls are given as the source filed them.

For Cc1ccc(S[C@]2(C(=O)NCCN3CCOCC3)CC(=O)N(Cc3ccccc3Cl)[C@@H]2c2ccc(CO)cc2)cc1 the compound record lists composite z-score as -0.255 (inactive)

For CN(C)CCCCCCNC(=O)[C@@H]1C[C@@H]2C(=O)N[C@@H](CCCCN)C(=O)N2[C@@H]1c1cccc(OCCO)c1 the compound record lists composite z-score as 3.64 (inactive)

For CN1C(=O)C2C=CC(C(O)C3CCCCC3)N(Nc3ccc([N+](=O)[O-])cc3[N+](=O)[O-])C2C1=O (stereo not drawn) the compound record lists composite z-score as 0.514 (inactive)

For [N-]=[N+]=NCc1ccccc1[C@H]1OC(c2ccc(OCCCO)cc2)=N[C@@]1(Cc1ccccc1)C(=O)NCc1ccccc1 the compound record lists composite z-score as 0.212 (inactive)

For C=C(CCCC)C(=O)CC[C@H](OC(=O)c1cccnc1)c1ccccc1OCCO the compound record lists composite z-score as 0.0328 (inactive)

For C=CCOC(=O)[C@H]1[C@@H]2C(=O)O[C@@H](c3ccccc3)[C@@H](c3ccccc3)N2[C@@H](c2ccc(OCCOC(=O)[C@@H]3C[C@@H]4C(=O)N[C@@H](CCCCN(C)C)C(=O)N4[C@@H]3c3ccc(O)cc3)cc2)[C@]12C(=O)Nc1ccc(I)cc12 the compound record lists composite z-score as 1.74 (inactive)

For CC(C)(C)C(=O)N[C@@H](c1ccc(Cl)cc1)[C@]1(C)C[C@H]1C1CCCCC1 the compound record lists composite z-score as 0.398 (inactive)

For COCCOC(=O)N1C(=O)[C@@]2(c3cc(C#CCCO)ccc31)[C@H](C(=O)N1CCN(c3ncccn3)CC1)[C@H]1C(=O)O[C@H](c3ccccc3)[C@H](c3ccccc3)N1[C@@H]2c1ccccc1OCCO the compound record lists composite z-score as 0.954 (inactive)

Further cases:
For COCCOC(=O)N1C(=O)[C@@]2(c3cc(C#CC4=CCCCC4)ccc31)[C@H](C(=O)N1CCc3cc(OC)c(OC)cc3C1)[C@H]1C(=O)O[C@H](c3ccccc3)[C@H](c3ccccc3)N1[C@@H]2c1ccc(OCCO)cc1 the compound record lists composite z-score as 0.173 (inactive)

For N#Cc1ccc(NN2C(C(O)c3c(F)cccc3Cl)C=CC3C(=O)N(c4ccccc4)C(=O)C32)cc1 (stereo not drawn) the compound record lists composite z-score as 0.817 (inactive)

For [N-]=[N+]=Nc1ccccc1[C@H]1OC(c2ccc(OCCCO)cc2)=N[C@@]1(Cc1ccccc1)C(=O)O the compound record lists composite z-score as 0.387 (inactive)

For O=C(NCc1ccccc1)[C@@]1(Cc2ccccc2)N=C(c2ccc(OCCCO)cc2)O[C@H]1c1ccccc1 the compound record lists composite z-score as 1.46 (inactive)

For C=CCOC(=O)[C@@H]1[C@H]2C(=O)O[C@H](c3ccccc3)[C@H](c3ccccc3)N2[C@H](c2ccc(OCCOC(=O)[C@@H]3C[C@@H]4C(=O)N5CCC[C@H]5C(=O)N4[C@@H]3c3ccc(O)cc3)cc2)[C@@]12C(=O)Nc1ccc(I)cc12 the compound record lists composite z-score as 0.393 (inactive)

====

- tested.system: Dickkopf-related protein 1 (Homo sapiens) (UniProt O94907)
- Sequence (O94907 whole entry, looked up): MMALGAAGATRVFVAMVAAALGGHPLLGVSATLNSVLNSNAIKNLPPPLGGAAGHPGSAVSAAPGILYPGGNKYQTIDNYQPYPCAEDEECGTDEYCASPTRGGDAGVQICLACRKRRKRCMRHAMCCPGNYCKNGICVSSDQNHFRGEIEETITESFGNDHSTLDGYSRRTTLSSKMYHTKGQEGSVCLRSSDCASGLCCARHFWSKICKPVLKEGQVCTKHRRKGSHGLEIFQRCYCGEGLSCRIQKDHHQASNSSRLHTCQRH
- assay.overview: DKK1 binders on small-molecule microarrays, primary screen, biochemical, small-molecule microarray, 635 nm fluorescence scan (AID 1106);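 also: score merges emission near 667 nm with signal to noise over three replicate slides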
- run.conditions: DKK1 binding, higher = more signal
composite z-score vs -0.05: at or above is label 1, below is label 0.

Field: example entries. Status: answers known.
Task item: Hi, just wondering whether O=C1[C@H]2C=C(Br)[C@H](C[C@@H]2c2ccccc2)[C@@]12CO2 shows composite z-score of -0.05 or higher.
Reply: label 1

Task item: Hi, just wondering whether COCC(=C=CC[C@@H](O)c1ccccc1OCCO)C[C@@H](O)c1cc(Cl)cc(Cl)c1O shows composite z-score of -0.05 or higher.
Reply: label 1

Task item: Hi, just wondering whether C=CCOC(=O)[C@H]1[C@@H]2C(=O)O[C@@H](c3ccccc3)[C@@H](c3ccccc3)N2[C@@H](c2ccc(OCCOC(=O)[C@@H]3C[C@@H]4C(=O)N[C@@H](CCCCN(C)C)C(=O)N4[C@@H]3c3ccc(O)cc3)cc2)[C@]12C(=O)Nc1ccc(I)cc12 shows composite z-score of -0.05 or higher.
Reply: label 1

Further cases:
Task item: Hi, just wondering whether NCCCCCNC(=O)[C@@H]1C[C@@H]2C(=O)N[C@@H](Cc3ccccc3)C(=O)N2[C@@H]1c1cccc(OCCO)c1 shows composite z-score of -0.05 or higher.
Reply: label 1

Task item: Hi, just wondering whether COCCOC(=O)N1C(=O)[C@@]2(c3cc(C#Cc4ccc(OC)cc4)ccc31)[C@H](c1ccccc1OCCO)N1[C@H](c3ccccc3)[C@H](c3ccccc3)OC(=O)[C@H]1[C@@H]2C(=O)N1CCN(c2ncccn2)CC1 shows composite z-score of -0.05 or higher.
Reply: label 1

Task item: Hi, just wondering whether C=C(C)C1C(=C)CN([C@H](CO)c2ccccc2)C1=O (stereo not given in full) shows composite z-score of -0.05 or higher.
Reply: label 0

Task item: Hi, just wondering whether CCN(CC)c1ccc(N2CC=CC34O[C@@H]5/C=C\CCCOC(=O)C5[C@H]3C(=O)N(CCO)[C@@H]4C2=O)cc1 (stereo not given in full) shows composite z-score of -0.05 or higher.
Reply: label 0

Task item: Hi, just wondering whether COC(=O)c1c(CC[C@@H](CO)NC(=O)N[C@H](Cn2cc(Cc3ccccc3)nn2)C(C)C)oc(C(C)=O)c1C(=O)OC shows composite z-score of -0.05 or higher.
Reply: label 1

Task item: Hi, just wondering whether CN(C)CCCC[C@@H]1NC(=O)[C@H]2C[C@@H](C(=O)NCCCCCNC(=O)CS)[C@@H](c3cccc(OCCO)c3)N2C1=O shows composite z-score of -0.05 or higher.
Reply: label 1

Task item: Hi, just wondering whether [N-]=[N+]=NCc1ccccc1C[C@@]1(C(=O)NCC(O)CO)N=C(c2ccc(OCCCO)cc2)O[C@@H]1c1ccccc1N=[N+]=[N-] (stereo not given in full) shows composite z-score of -0.05 or higher.
Reply: label 0

Task item: Hi, just wondering whether CC(CO)N1C(=O)[C@@H]2C3C(=O)OCCC/C=C\[C@H]3OC23C=CCN(c2ccc4ccccc4c2)C(=O)[C@@H]13 (stereo not given in full) shows composite z-score of -0.05 or higher.
Reply: label 0

Task item: Hi, just wondering whether CCCC[C@H]1OB(O)C[C@H]2C1=C(COc1ccccc1)C[C@H]1C(=O)N(C)C(=O)[C@H]12 shows composite z-score of -0.05 or higher.
Reply: label 1

Task item: Hi, just wondering whether C#CCN(CC=C(C)C)[C@H](CO)c1ccccc1 shows composite z-score of -0.05 or higher.
Reply: label 1

Task item: Hi, just wondering whether CN1C(=O)C2C=CC(C(O)c3cccs3)N(Nc3ccccc3)C2C1=O (stereo not given) shows composite z-score of -0.05 or higher.
Reply: label 1

Task item: Hi, just wondering whether Cc1ccc(S[C@]2(C(=O)NCC(C)C)CC(=O)N(Cc3cc(C(F)(F)F)cc(C(F)(F)F)c3)[C@@H]2c2ccc(CO)cc2I)cc1 shows composite z-score of -0.05 or higher.
Reply: label 0

====

- System: Human papillomavirus type 1a E7 protein (residues 1-88)
- assay.overview: HPV1a E7 small-molecule binders, primary screen, biochemical, small-molecule microarray, residues 1-88, 635 nm (AID 1129)
- run.conditions: small-molecule microarray binding, fluorescence 635 nm; higher = more signal
# reported composite z-score; entries follow
Give the figure only, with no unit attached.

Sample records with composite z-score:
For COC(=O)[C@@]1(Cc2ccccc2)[C@H]2c3cc(C(=O)N(C)C)n(CCSCCO)c3C[C@H]2CN1C(=O)c1ccccc1 the molecule record lists composite z-score as 1.2

For O=C1C[C@]2(c3ccc([N+](=O)[O-])cc3)C(=O)N(CCN3CCOCC3)c3cc(CO)ccc3[C@H]2N1C1CCCCC1 the molecule record lists composite z-score as -1.24

For COC(=O)[C@@]1(Cc2ccccc2)[C@H]2c3cc(C(=O)N4CCCC4)n(CC4CC4)c3C[C@H]2CN1C(=O)c1ccccc1 the molecule record lists composite z-score as 1.2

For CCCCc1cn(C[C@H](Cc2ccccc2)NC(=O)N[C@H](CO)CCc2oc(C(C)=O)c(C(=O)OC)c2C(=O)OC)nn1 the molecule record lists composite z-score as 1.2

For CN(C)CCCNC(=O)[C@@]1(c2ccc([N+](=O)[O-])cc2)CC(=O)N(C2CCCCC2)[C@@H]1c1ccc(CO)cc1 the molecule record lists composite z-score as 0.108

Further cases:
For CCOc1cc(C(O)C2C=CC3C(=O)N(c4ccccc4)C(=O)C3N2Nc2ccccc2)ccc1O (centres undefined) the molecule record lists composite z-score as 1.19

For O=C(NCc1ccccc1)[C@@]1(CCS(=O)(=O)c2ccccc2)N=C(c2ccc(OCCCO)cc2)O[C@H]1c1ccccc1 the molecule record lists composite z-score as 1.26

For [N-]=[N+]=NCc1ccccc1C[C@@]1(C(=O)NCC(O)CO)N=C(c2ccc(OCCCO)cc2)O[C@@H]1c1ccccc1N=[N+]=[N-] (some centres undefined) the molecule record lists composite z-score as 1.22

For CC(C)C[C@H]1NC(=O)[C@@]23C(=O)N[C@@H](Cc4ccccc4)C2[C@H](C)[C@@]2(C)O[C@H]2C3/C=C/C/C=C\CNC(=O)[C@H](Cc2ccccc2)NC1=O (some centres undefined) the molecule record lists composite z-score as 0.45

For O=C1NC(=O)C2C1C=CC(C(O)c1ccccc1)N2Nc1ccc(Cl)cc1Cl (centres undefined) the molecule record lists composite z-score as 1.16

For O=C1NC(=O)C2C1C=CC(C(O)Cc1ccccc1)N2Nc1ccc(Cl)cc1Cl (centres undefined) the molecule record lists composite z-score as -0.364
